assay details: in vitro
measurement parameters: human, hela cells, % viability
viability at 28.5 h, 10 µM values, listed per item
readout: viability at 28.5 h, 10 µM (%)

1. COc1ccc(Nc2ncc(C(=O)NCCCN3CCCC3)c3ccccc23)cc1 : 106
2. Cc1ccc(S(=O)(=O)N2CCCCC2CO)cc1 (centres unmarked) : 114
3. COc1ccc(N2C(N)=C(C#N)C(c3cccc(OC(C)C)c3)C3=C2CCS3(=O)=O)cc1 (centres unmarked) : 85.6
4. O=C(Cc1ccc2c(c1)CCCC2)Nc1cccc(-c2nnn[nH]2)c1 : 114
5. CN(CC1CCN(C(=O)OC(C)(C)C)CC1)c1ccnc(-c2ccncc2)n1 : 101

----------
assay details: in vitro
measurement parameters: human, hela cells, % viability
The entries below come with measured viability at 28.5 h, 10 µM values attached.
readout: viability at 28.5 h, 10 µM (%)

1. O=C(CC1CC1)Nc1snnc1-c1ccc(Cl)cc1 [CBK153239] : 97
2. O=C(CSc1nnc(-c2ccncc2)o1)Nc1ccccc1 [CBK287586] : 91.3
3. CNc1cc(N2CCN(S(=O)(=O)N(C)C)CC2)ccc1[N+](=O)[O-] [CBK269311] : 89.8
4. O=C(O)C1CC1C(=O)N1CCC2(CC1)OCCc1c2[nH]c2ccccc12 (stereo not shown) [CBK047167] : 89.2
5. COC(=O)c1c(NC(=S)NCCn2cc(Br)cn2)sc2c1CCC(C)C2 (stereo not shown) [CBK266886] : 89.8
6. CN1CCN(NC(=O)CSc2ccccc2)CC1 [CBK268142] : 107
7. C/C(=C1/SC(=S)N(c2cccc(C(=O)O)c2)C1=O)c1cccc([N+](=O)[O-])c1 [CBK265168] : 100
8. COc1cc2c(cc1S(N)(=O)=O)C(=O)CCC2 [CBK010234] : 92.2
9. Cc1nnc(N/N=C/c2ccc(OC3CCCC3)cc2)nc1O [CBK058025] : 104
10. c1ccc2c(c1)oc1cccc(-c3cc(NCCc4c[nH]cn4)ncn3)c12 [CBK037708] : 94.6
11. O=C1N=C(NC2CC3CCC2C3)SC12CCC2 (stereo not shown) [CBK073933] : 96.2
12. Cc1cc2nc(CC(=O)NN)[nH]c2cc1C [CBK012180] : 89.3
13. Cc1ccc(C(=O)N2CCC[C@@H]3NC(=O)c4ccccc4OCC/C=C/C[C@@H]32)c(O)n1 [CBK292080] : 98.2
14. Cc1ccc(C(=O)NCc2ccc(-c3n[nH]cc3C(=O)N(C)Cc3ccccc3)cc2)cc1 [CBK285598] : 100
15. CC1(C)CC(=O)C(C(=S)Nc2ccccc2)=C(NCc2ccccc2)C1 [CBK264498] : 91.6
16. CCC(C)NC(=O)Cn1c(C2CCOCC2)cc2cccnc21 (stereo not shown) [CBK285390] : 104
17. CC(=O)Nc1cccc(-c2cncc(N[C@H](CO)C(C)C)n2)c1 [CBK065475] : 98.2
18. COCCCNC(=O)c1cnn2c(C)c(Cc3ccccc3)c(C)nc12 [CBK162216] : 94.6
19. CS(=O)(=O)N(Cc1ccccc1)c1ccc(C(=O)N2CCN(Cc3ccccc3)CC2)cc1 [CBK264134] : 114

----------
Quick reference for viability at 28.5 h, 10 µM among some compounds
assay details: in vitro
measurement parameters: human, hela cells, % viability
readout: viability at 28.5 h, 10 µM (%)

1) CCC1CCCCN1C(=O)c1ccc(-c2ccccc2)s1 (stereo not shown) : 96.5
2) CSc1nc(O)c(C(c2cccc([N+](=O)[O-])c2)c2c(O)nc(SC)nc2O)c(O)n1 : 80.5
3) COc1ccc2c(c1)cc(C(=O)NCCN1CCCCC1CO)n2C (stereo not shown) : 114
4) COc1cccc(C(=O)Oc2ccc3c(=O)c(-c4nc5ccccc5s4)c(C)oc3c2)c1 : 103
5) CCn1nc(C)c(C(C)NC(=O)CC(C)n2nc(C)cc2C)c1C (stereo not shown) : 78.9
6) O=C(Cn1cnc2ccc(F)cc2c1=O)N1Cc2ccccc2C(c2ccccc2)C1 (stereo not shown) : 95.1
7) O=C(O)CC1S\C(=N/N=C\C=C/c2ccccc2)N(c2ccc(O)cc2)C1=O (stereo not shown) : 93
8) CN1CCN(C(c2cccs2)c2nnnn2C(C)(C)C)CC1 (stereo not shown) : 91.9
9) C[Si]1(C)O[Si](C)(C)O[Si](C)(CC[Si](C)(C)c2ccccc2)O[Si](C)(C)O1 : 97
10) O=C(O)c1ccccc1-c1ccc(-c2cc(C(=O)O)c3cc(Cl)ccc3n2)o1 : 91.1
11) COc1ccc(NC(=O)CN2CCN(c3ccccc3OC)CC2)c([N+](=O)[O-])c1 : 94.7
12) O=C(C1c2ccccc2Oc2ccccc21)N1C2CCC1CC(O)(c1ccco1)C2 (stereo not shown) : 93.8
13) Cc1nc2c(c(N3CCOCC3)n1)OCC(=O)N2 : 94.5
14) Cc1ccc(C(=O)NCC(c2ccccc2Cl)N2CCOCC2)c(=O)[nH]1 (stereo not shown) : 99.3
15) COc1cc(NS(=O)(=O)c2ccc(N/C=C3/CCc4ccccc4C3=O)cc2)nc(OC)n1 : 82.4
16) CCOC(=O)CC1C(=O)NCCN1C/C=C\c1ccccc1OC (stereo not shown) : 94.3
17) Cc1nc(CCNC(=O)c2cc(C(C)C)n(C(C)(C)C)n2)cs1 : 89.2
18) COC1C(O)C(CO)OC1n1cc(C)c(N)nc1=O (stereo not shown) : 108
19) OC(CSc1ccccc1)CN1CCN(C(c2ccccc2)c2ccccc2)CC1 (stereo not shown) : 91.3
20) FC(F)(F)c1cccnc1OCc1cccnc1 : 101
21) Clc1cc(Cl)c2[nH]c3c(c2c1)CCc1nonc1-3 : 102
22) CCOc1ccc(NCc2ccccc2NS(=O)(=O)c2ccc(C)cc2)cc1 : 93.6
23) CN1C(=O)c2ccccc2OCCCCC[C@H]2NCCC[C@H]21 : 110
24) CCOC(=O)CN1CCN(S(=O)(=O)c2ccc3ccccc3c2)CC1 : 93.4
25) COc1cc(C)c(C)cc1S(=O)(=O)n1cnc2ccccc21 : 89.2
26) Cc1nnc(SCC(=O)N/N=C/c2cc([N+](=O)[O-])ccc2O)n1-c1ccccc1 : 89.5
27) COc1ccc(N(C(C)C(=O)N/N=C(\C)c2ccccc2O)S(C)(=O)=O)cc1 (stereo not shown) : 93.4
28) CC12CN3CC(C)(CN(C1)C3c1ccc([N+](=O)[O-])cc1)C2 (stereo not shown) : 95.2
29) CCN1CCC(NCc2ccc(OCC(N)=O)cc2)CC1 : 85.9
30) CCN(CC)CCSc1nc(O)c(Cc2ccccc2)c(=O)[nH]1 : 88.9
31) O=[N+]([O-])c1cnc(NCCCn2ccnc2)c([N+](=O)[O-])c1 : 94.4
32) COCC(=O)N1CCc2sccc2C1c1ccc(NCc2cccc(OC)c2)cc1 (stereo not shown) : 92.9
33) Cc1nn(C)c(C)c1NC(=O)COc1ccc2c(c1)CCCC2=O : 98.5
34) COc1cccc(N2CCN(c3cc4n[nH]c(=O)n4cn3)CC2)c1 : 87.1
35) COCOc1ccc(-c2ncc(OC)nc2NC(=O)c2cc3ccccc3s2)cc1 : 103
36) COc1cccc(CN2CCC3(C2)c2[nH]c4ccccc4c2CCN3Cc2cccc(OC)c2)c1 (stereo not shown) : 90.5
37) O=C(COc1ccc(S(=O)(=O)N2CCOCC2)cc1)NCc1ccccc1 : 98.6

----------
Recorded viability at 28.5 h, 10 µM, one value per entry.
assay details: in vitro
measurement parameters: human, hela cells, % viability
readout: viability at 28.5 h, 10 µM

1. Cn1nc(C(=O)NCC2(c3cccc(F)c3)CCCC2)ccc1=O : 86.9%
2. c1ccc(CCN2CCC(Oc3nccnc3OCc3cccnc3)CC2)nc1 : 103%
3. CN(C)CCCN1C(=O)C(O)=C(C(=O)c2ccc(F)cc2)C1c1cccnc1 (stereo not drawn) : 107%
4. O=C(Nc1cccnc1)c1cc(-c2ccc(Cl)cc2)on1 : 92.8%
5. O=CN1CCc2c([nH]c3ccccc23)C12CCN(CCCN1C(=O)C3CCCCC3C1=O)C2 (stereo not drawn) : 114%
6. O=[N+]([O-])c1cc(F)ccc1Oc1cccc(Cl)c1Cl : 112%
7. CCC(CC)CNc1ncnc2ccc(S(C)(=O)=O)cc12 : 90.9%
8. CC(C)C[C@H](NC(=O)OC(C)(C)C)C(=O)NC[C@H]1CC[C@H](C(=O)O)CC1 : 85.9%
9. O=[N+]([O-])c1ccccc1/C=C/CN1CCN(CCO)CC1 : 85.8%

----------
assay details: in vitro
measurement parameters: human, hela cells, % viability
readout: viability at 28.5 h, 10 µM (%)

1. COCCn1c(CO)nnc1[C@H]1C[C@@H](NC(=O)c2ccc(O)c(F)c2)C1 [CBK307132] : 74.1
2. O=C(O)c1cc(N/N=C/c2ccc(-c3ccc(Cl)c(C(=O)O)c3)o2)ccc1Cl [CBK262483] : 88.8
3. N#Cc1ccc(CNC2(Cc3cc(C(=O)N4CCCCC4)on3)COC2)cc1 [CBK289672] : 87
4. O=C(O)c1cccc(NC(=O)c2cccc(S(=O)(=O)Nc3ccc(Cl)cc3)c2)c1 [CBK261261] : 92.6
5. Cc1ccccc1OC(C)C(=O)Nc1ccc(S(=O)(=O)N2CCCC2)cc1 (stereo not drawn) [CBK269367] : 89.7
6. COc1ccc2[nH]c(NCCCO)nc2c1 [CBK264155] : 91.2
7. Cc1ccccc1-c1ccccc1CC1(C(N)=O)CCN(C(=O)c2cccc(F)c2)CC1 [CBK285726] : 94.2
8. Clc1cncc(OC(c2ccccc2)C2CC2)n1 (stereo not drawn) [CBK176042] : 78
9. Cc1cccn2c(=O)cc(CN3CCC(CNc4ccccn4)C3)nc12 (stereo not drawn) [CBK306123] : 103
